Just for reference, patent US5254577A is where these values come from.

Observed MIC for Staphylococcus aureus, reported per entry below.
Numbers only here, please. The scale is µg/mL.

CC(=O)NC[C@H]1CN(c2ccc(-c3cccc([S+](C)[O-])c3)cc2)C(=O)O1 (single isomer, unassigned) = 2
CC(=O)NC[C@H]1CN(c2ccc(-c3ccc(C(O)C(C)CN4CCN(C)CC4)cc3)cc2)C(=O)O1 (some centres unmarked) = 4
CC(=O)NC[C@H]1CN(c2ccc(-c3ccc(C(=O)CCN(C)C)cc3)cc2)C(=O)O1 = 1
CC(=O)NC[C@H]1CN(c2ccc(-c3ccc(C#N)cc3)cc2)C(=O)O1 = 0.25
CC(=O)NC[C@H]1CN(c2ccc(-c3ccc(C(C)=O)cc3)cc2)C(=O)O1 = 0.5

Ask | MIC lookup needed for C=C(C)C(=O)c1ccc(-c2ccc(N3C[C@H](CNC(C)=O)OC3=O)cc2)cc1 , thanks.
Reply | 0.25

Ask | Now give it for CCN(CC)Cc1ccc(-c2ccc(N3C[C@H](CNC(C)=O)OC3=O)cc2)cc1 too.
Reply | 4

Ask | Now give it for CCCCCCCCNCc1ccc(-c2ccc(N3C[C@H](CNC(C)=O)OC3=O)cc2)cc1 too.
Reply | 1

----------
Observed MIC for Staphylococcus aureus, reported per entry below.

CC(=O)NC[C@H]1CN(c2ccc(-c3ccccc3C)cc2)C(=O)O1 = 2 µg/mL
CC(=O)NC[C@H]1CN(c2ccc(-c3ccc(C(C)=NO)cc3)cc2)C(=O)O1 = 0.25 µg/mL
CCCCN(CCCC)Cc1ccc(-c2ccc(N3C[C@H](CNC(C)=O)OC3=O)cc2)cc1 = 4 µg/mL
CSc1ccc(-c2ccc(N3C[C@H](CNC(C)=O)OC3=O)cc2)cc1 = 0.25 µg/mL
CC(=O)NC[C@H]1CN(c2ccc(-c3ccc(C(C)=NOC(=O)CCC(=O)O)cc3)cc2)C(=O)O1 = 1 µg/mL
CC(=O)NC[C@H]1CN(c2ccc(-c3ccc(C(O)CCN4CCOCC4)cc3)cc2)C(=O)O1 (single isomer, unassigned) = 2 µg/mL

Ask | MIC lookup needed for CCc1ccc(-c2ccc(N3C[C@H](CNC(C)=O)OC3=O)cc2)cc1 , thanks.
Reply | 0.5 µg/mL

Ask | Now give it for CC(=O)NC[C@H]1CN(c2ccc(-c3cc(O)ccc3O)cc2)C(=O)O1 too.
Reply | 16 µg/mL

Ask | Now give it for CC(=O)NC[C@H]1CN(c2ccc(-c3ccc(I)cc3)cc2)C(=O)O1 too.
Reply | 8 µg/mL

Ask | Now give it for CC(=O)NC[C@H]1CN(c2ccc(-c3ccc(C(C)OC(=O)CCC(=O)O)cc3)cc2)C(=O)O1 (stereo partly shown) too.
Reply | 4 µg/mL

Ask | Now give it for CC(=O)NCC1CN(c2ccc(-c3ccc([N+](C)(C)[O-])cc3)cc2)C(=O)O1 (stereo not shown) too.
Reply | 16 µg/mL

Ask | Now give it for CC(=O)NC[C@H]1CN(c2ccc(-c3cccc[n+]3[O-])cc2)C(=O)O1 too.
Reply | 32 µg/mL

Ask | Now give it for CC(=O)NC[C@H]1CN(c2ccc(-c3cncc4ccccc34)cc2)C(=O)O1 too.
Reply | 2 µg/mL

Ask | Now give it for CC(=O)NC[C@H]1CN(c2ccc(-c3ccnc(N)n3)cc2)C(=O)O1 too.
Reply | 4 µg/mL

Ask | Now give it for CC(=O)NC[C@H]1CN(c2ccc(-c3cccnc3)cc2)C(=O)O1 too.
Reply | < 0.13 µg/mL

Ask | Now give it for CCC(=O)c1ccc(-c2ccc(N3C[C@H](CNC(C)=O)OC3=O)cc2)cc1 too.
Reply | 2 µg/mL
